Value source: ChEMBL document CHEMBL3734694

- test: Solubility of compound in water
Quick list: solubility per entry.
readout name: solubility (mg/mL)

COc1cc(/C=C2\CC/C(=C\c3ccc(OCCCn4ccnc4)c(OC)c3)C2=O)ccc1OCCCn1ccnc1 0.00363
COc1ccccc1/C=C/C(=O)/C=C/c1ccc(OCCCN2CCOCC2)c(OC)c1 0.0212
COc1cc(/C=C2\CC/C(=C\c3ccc(OCCCN4CCCCC4)c(OC)c3)C2=O)ccc1OCCCN1CCCCC1 0.00411
CCN(CC)CCCOc1ccc(/C=C2\CCC/C(=C\c3ccc(OCCCN(CC)CC)c(OC)c3)C2=O)cc1OC 0.0216
COc1cc(/C=C/C(=O)/C=C/c2cccc(OC)c2OC)ccc1OCCCN1CCOCC1 0.114
